// provenance: patent US10829473B2

Reported Emax values for a set of compounds
Biological target: F508delCFTR (Homo sapiens, UniProt P13569, DEL508-508)
Construct: expressed in transfected cells; host or cells: CFBE41o- human lung derived epithelial cells (CFBE41o-F508delCFTR-HRP), doxycycline-inducible
Sequence (P13569 with tags, fused parts or gaps DEL508-508): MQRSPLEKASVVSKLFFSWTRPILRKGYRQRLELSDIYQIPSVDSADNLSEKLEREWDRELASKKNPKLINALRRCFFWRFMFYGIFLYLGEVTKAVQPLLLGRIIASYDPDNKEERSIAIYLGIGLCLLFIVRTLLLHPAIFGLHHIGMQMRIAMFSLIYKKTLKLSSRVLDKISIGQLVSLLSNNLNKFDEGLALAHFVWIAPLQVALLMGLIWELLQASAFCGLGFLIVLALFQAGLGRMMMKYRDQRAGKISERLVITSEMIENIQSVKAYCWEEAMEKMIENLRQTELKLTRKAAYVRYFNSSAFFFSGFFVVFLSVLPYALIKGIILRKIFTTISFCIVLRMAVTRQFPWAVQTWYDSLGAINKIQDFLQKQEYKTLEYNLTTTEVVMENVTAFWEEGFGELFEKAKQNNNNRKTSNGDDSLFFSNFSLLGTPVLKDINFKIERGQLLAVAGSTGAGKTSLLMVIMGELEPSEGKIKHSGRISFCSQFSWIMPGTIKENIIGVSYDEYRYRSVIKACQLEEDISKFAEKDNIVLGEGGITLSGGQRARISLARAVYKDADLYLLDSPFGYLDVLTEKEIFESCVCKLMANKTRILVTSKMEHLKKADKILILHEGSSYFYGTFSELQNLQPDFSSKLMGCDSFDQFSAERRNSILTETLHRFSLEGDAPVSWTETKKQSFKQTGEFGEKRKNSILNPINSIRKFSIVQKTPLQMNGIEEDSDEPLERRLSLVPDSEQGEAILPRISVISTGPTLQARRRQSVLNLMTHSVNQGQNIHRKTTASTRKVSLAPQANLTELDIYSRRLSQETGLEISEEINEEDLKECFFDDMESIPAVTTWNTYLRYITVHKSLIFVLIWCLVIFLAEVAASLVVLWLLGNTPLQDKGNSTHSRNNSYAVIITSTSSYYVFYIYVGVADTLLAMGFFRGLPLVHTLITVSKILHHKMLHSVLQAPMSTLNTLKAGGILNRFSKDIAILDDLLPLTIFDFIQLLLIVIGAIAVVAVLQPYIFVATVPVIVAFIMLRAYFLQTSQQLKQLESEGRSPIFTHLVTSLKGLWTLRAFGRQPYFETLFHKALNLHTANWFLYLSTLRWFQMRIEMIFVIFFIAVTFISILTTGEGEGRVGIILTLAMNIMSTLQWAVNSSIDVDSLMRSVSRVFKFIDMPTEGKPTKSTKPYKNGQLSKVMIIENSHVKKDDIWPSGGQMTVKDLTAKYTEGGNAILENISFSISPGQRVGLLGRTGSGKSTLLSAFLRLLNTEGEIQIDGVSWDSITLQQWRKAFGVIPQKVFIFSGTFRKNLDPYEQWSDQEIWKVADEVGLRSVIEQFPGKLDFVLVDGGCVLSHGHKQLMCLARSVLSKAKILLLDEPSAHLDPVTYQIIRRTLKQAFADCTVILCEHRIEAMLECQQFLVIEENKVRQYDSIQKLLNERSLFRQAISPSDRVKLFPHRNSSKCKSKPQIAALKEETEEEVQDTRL
Assay: Cell Surface Expression-Horse Radish Peroxidase (CSE-HRP) Assay;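 further: % of on-plate positive control chromenyl benzoic acid corrector at 2 or 3 µM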
Assay type: cell-based
Conditions: without co-corrector; maximum at any tested concentration; read-out: Maximum % activity (without co-corrector)
Method: A cellular assay for measuring the F508delCFTR cell surface expression after correction with test compounds either without or with a co-corrector (2 μM of 3-[(2R,4R)-4-({[1-(2,2-difluoro-1,3-benzodioxol-5-yl)cyclopropyl]carbonyl}amino)-7-methoxy-3,4-dihydro-2H-chromen-2-yl]benzoic acid), was developed in human lung derived epithelial cell line (CFBE4lo−) (Veit G et al, (2012) Mol Biol Cell. 23(21): 4188-4202). […] The raw counts from the experiment were analyzed using Accelrys® Assay Explorer v3.3. […]
measured-metric: Emax

{"structure-smiles-string": "CCn1nc(C2(C(=O)NS(=O)(=O)c3cccc4ccccc34)CC2)cc1C", "measured-metric": "Emax", "experimental-value": "< 50%"}
{"structure-smiles-string": "COc1ccc(C)c(C)c1C1(C(=O)NS(=O)(=O)c2cccc3[nH]ncc23)CC1", "measured-metric": "Emax", "experimental-value": "> 150%"}
{"structure-smiles-string": "COc1ncc(C2CCC2)cc1C1(C(=O)NS(=O)(=O)c2cccc3[nH]ccc23)CC1", "measured-metric": "Emax", "experimental-value": "> 150%"}
{"structure-smiles-string": "COc1ccc(S(=O)(=O)NC(=O)C2(c3ccc(Cl)cc3Cl)CC2)cc1", "measured-metric": "Emax", "experimental-value": "< 50%"}
{"structure-smiles-string": "COc1cccc(C)c1C1(C(=O)NS(=O)(=O)c2cccc3ccc(C)nc23)CC1", "measured-metric": "Emax", "experimental-value": "> 150%"}
{"structure-smiles-string": "Cc1cnc(OCC(C)C)c(C2(C(=O)NS(=O)(=O)c3cccc4nc(N)ccc34)CC2)c1", "measured-metric": "Emax", "experimental-value": "> 150%"}
{"structure-smiles-string": "Cc1ccccc1S(=O)(=O)NC(=O)C1(c2ccc(Cl)cc2Cl)CC1", "measured-metric": "Emax", "experimental-value": "50 to 150%"}
{"structure-smiles-string": "COc1cc(F)c(C(C)C)cc1C1(C(=O)NS(=O)(=O)c2cccc3c2CCCN3)CC1", "measured-metric": "Emax", "experimental-value": "> 150%"}
{"structure-smiles-string": "COc1ccc(C2(C(=O)NS(=O)(=O)c3cccc4ccccc34)CCCC2)cc1OC", "measured-metric": "Emax", "experimental-value": "< 50%"}
{"structure-smiles-string": "COc1ccc(C#N)cc1C1(C(=O)NS(=O)(=O)c2cccc3c2CCCN3)CC1", "measured-metric": "Emax", "experimental-value": "> 150%"}
{"structure-smiles-string": "CO[C@H](C)COc1ccc(C)cc1C1(C(=O)NS(=O)(=O)c2cccc3ncccc23)CC1", "measured-metric": "Emax", "experimental-value": "> 150%"}
{"structure-smiles-string": "COc1ncc(C2CCC2)c(C)c1C1(C(=O)NS(=O)(=O)c2cccc3ccc(C)nc23)CC1", "measured-metric": "Emax", "experimental-value": "> 150%"}
{"structure-smiles-string": "COc1cc(C2CCC2)cc(OC)c1C1(C(=O)NS(=O)(=O)c2cccc3ccn(C)c23)CC1", "measured-metric": "Emax", "experimental-value": "> 150%"}
{"structure-smiles-string": "COc1ccc(C(F)(F)F)cc1C1(C(=O)NS(=O)(=O)c2cccc3c2CCCN3)CC1", "measured-metric": "Emax", "experimental-value": "> 150%"}
{"structure-smiles-string": "CCc1ccc(O[C@@H]2CCOC2)c(C2(C(=O)NS(=O)(=O)c3cccc4nc(C)ccc34)CC2)c1", "measured-metric": "Emax", "experimental-value": "> 150%"}
{"structure-smiles-string": "Cc1ccc(OC(F)F)c(C2(C(=O)NS(=O)(=O)c3cccc4nc(C)ccc34)CC2)c1", "measured-metric": "Emax", "experimental-value": "> 150%"}
{"structure-smiles-string": "COC[C@H](C)Oc1ccc(C)cc1C1(C(=O)NS(=O)(=O)c2cccc3nc(C)ccc23)CC1", "measured-metric": "Emax", "experimental-value": "> 150%"}
